Measured pIC50 values are reported for all entries that follow.
target: Alpha amylase (Homo sapiens); test: Inhibition of alpha-amylase (unknown origin) using 1% starch as substrate preincubated for 30 mins followed by substrate addition and measured after 30 mins by colorimetric analysis; format: protein assay
Sequence (P0DUB6 whole entry): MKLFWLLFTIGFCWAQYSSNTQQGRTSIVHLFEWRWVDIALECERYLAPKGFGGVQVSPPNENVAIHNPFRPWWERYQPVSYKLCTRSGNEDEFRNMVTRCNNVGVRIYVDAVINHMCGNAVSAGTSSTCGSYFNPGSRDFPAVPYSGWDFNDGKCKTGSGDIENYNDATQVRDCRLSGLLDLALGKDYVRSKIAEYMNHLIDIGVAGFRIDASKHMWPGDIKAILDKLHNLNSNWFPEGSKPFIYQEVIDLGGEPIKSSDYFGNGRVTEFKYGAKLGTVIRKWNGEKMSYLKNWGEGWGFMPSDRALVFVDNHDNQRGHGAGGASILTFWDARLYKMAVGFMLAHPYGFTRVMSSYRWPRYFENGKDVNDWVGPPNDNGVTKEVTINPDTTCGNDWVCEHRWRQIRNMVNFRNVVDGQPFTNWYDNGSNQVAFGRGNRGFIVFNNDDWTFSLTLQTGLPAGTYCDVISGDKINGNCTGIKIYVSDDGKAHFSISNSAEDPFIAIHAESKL

Use the examples below as a reference point.
smi: CN(C)/C=C1\SC(=O)N(Cc2cn(-c3cccc(Cl)c3Cl)nn2)C1=O
pIC50: 7.222
--
smi: CN(C)/C=C1\SC(=O)N(Cc2cn(-c3ccc([N+](=O)[O-])cc3)nn2)C1=O
pIC50: 7.227
--
smi: CN(C)/C=C1\SC(=O)N(Cc2cn(-c3ccc(F)cc3)nn2)C1=O
pIC50: 7.031

q: Name the reported pIC50 value associated with the compound `Cc1cccc(-n2cc(CN3C(=O)S/C(=C\N(C)C)C3=O)nn2)c1`
a: 7.215

q: Name the reported pIC50 value associated with the compound `CN(C)/C=C1\SC(=O)N(Cc2cn(-c3ccccc3Cl)nn2)C1=O`
a: 7.039
